Please respond with reported TGI for every item in the list.
# System: COLO 205 colon
# experiment-summary: NCI tumour cell line growth inhibition, 48 h
Give the value in µM but do not write µM after it.

Give its TGI value. Item: CN(C)CCNc1ccc2c(=O)n(CCN(C)C)c(=O)n3c4ccc(O)cc4c(=O)c1c23
0.099

Entry to check: CC1CC[C@@]2(OC1)OC1C[C@H]3[C@@H]4CC=C5CC(OC6OC(CO)C(OC7OC(CO)C(O)C(OC8OCC(O)C(O)C8O)C7OC7OC(CO)C(OC8OC(C)C(OC9OC(C)C(O)C(O)C9O)C(O)C8O)C(O)C7O)C(O)C6O)CCC5(C)[C@H]4CCC3(C)C1[C@@H]2C (some centres undefined)
15.6

* * *

# System: 786-0 renal
# experiment-summary: NCI tumour cell line growth inhibition, 48 h; in the data active = GI50 below about 0.43 µM; inactive = the rest
Response enum: active, inactive

Short answer needed: outcome of this test for O=S(=O)(/N=c1\scc(-c2ccccc2)n1-c1ccccc1)c1ccc(N2N=C3c4ccccc4CC3C2c2ccc(Cl)cc2)cc1 (configuration not stated) ?
inactive

Entry to check: O=C(Oc1cccnc1)c1cccnc1Nc1ccnc(C(F)(F)F)c1
inactive

Entry to check: CCOC(=O)Oc1c(OC)cc(C(=O)c2ccc(OC)c(O)c2OC)cc1OC
inactive

Entry to check: Cc1c2cnccc2c(C)c2c1c1cc(C#N)ccc1n2C
active

Entry to check: C/C(=N/O)c1cccc(Nc2cc(-n3nnc4ccccc43)nc3ccccc23)c1
inactive

Entry to check: C=C1CCC2C3(C)COC(C)(C)OC3CCC2(C)C1C/C=C1/C(=O)OCC1OC(C)=O (configuration not stated)
inactive

Entry to check: O=C1OCC2=C1C(c1cccc(F)c1)c1cc3c(cc1N2CCO)OCO3 (configuration not stated)
inactive

Entry to check: CC1CC(C)CC(C)C(O)/C(C#N)=C/C=C/CC(C2CCCC2C(=O)O)OC(=O)CC(O)C(C)C1 (configuration not stated)
active

Entry to check: O=C1/C(=C/c2ccc([N+](=O)[O-])cc2)CN(C(=O)CCN2CCC(=NO)CC2)C/C1=C\c1ccc([N+](=O)[O-])cc1
inactive

Entry to check: COc1ccc2c(c1)C(=O)/C(=C/c1cccc(OCC(=O)c3ccccc3)c1)CC2
inactive

Entry to check: COc1cc(/C=C/C(=O)/C=C/c2cc(OC)c3c(c2)OCO3)cc2c1OCO2
inactive

Entry to check: O=C(Nc1cccc(Cl)c1)Nn1cnnc1
inactive

* * *

# Test system: M14 melanoma
# experiment-summary: NCI tumour cell line growth inhibition, 48 h
Please respond with reported TGI for every item in the list.

What measured TGI is associated with CC(=O)Nc1ccc2c(C)c3c(nc2n1)[nH]c1ccccc13 on M14 melanoma?
82.2 µM

Entry to check: Nc1ncnc2c1ncn2C1OC(CSCC(F)(F)F)C(O)C1O (centres undefined)
> 100 µM

Entry to check: CC(=O)Nc1ccc(-c2cc(C(=O)O)c3cc4ccccc4cc3n2)cc1
> 100 µM

Entry to check: CN(C)CC(O)c1ccc(Cl)c2ccccc12 (centres undefined)
33 µM

Entry to check: Oc1cc(Cc2ccccc2)c(Cc2ccccc2)cc1O
> 10 µM

Entry to check: CCOC(=O)c1c(C)n(Cc2ccc(Cl)cc2Cl)c2c1cc(O)c1[nH]c3c(c12)CCCC3
86.3 µM

Entry to check: Cn1c(=O)c(N=Nc2c(=O)n(C)c(=O)n3c2[nH]c2ccccc23)c2[nH]c3ccccc3n2c1=O
> 100 µM

Entry to check: OC1[C@@H]2[C@@H](O)CCCN2C[C@@H](O)[C@H]1O (some centres undefined)
> 100 µM

Entry to check: COc1cc(C2c3c(ccc4ccccc34)C(=O)C3CCC(=O)N32)cc(OC)c1OC (centres undefined)
> 50 µM

Entry to check: O=C1C[C@H]2CCCN2[C@@H](c2ccccc2)C1
> 100 µM

Entry to check: [N-]=[N+]=Nc1c(Cc2ccccc2)c(Cl)nc2ccccc12
49.4 µM

Entry to check: O=[N+]([O-])c1ccccc1N=Nc1c(O)[nH]c2cccc(C(F)(F)F)c12
> 100 µM

Entry to check: C[C@@H]1OC(=O)C[C@H]2CC(=O)N(CCC3CN(C(=O)OCc4ccccc4)c4ccccc43)C[C@@H]21 (some centres undefined)
> 100 µM

Entry to check: C/C(CC(O)(C(F)(F)F)C(F)(F)F)=N\NC(N)=O
> 10 µM

Entry to check: CCc1n[nH]c(=O)n1CCCCCCCCCCCCn1c(CC)n[nH]c1=O
95.8 µM

Entry to check: O=C1/C(=C/c2ccc([N+](=O)[O-])cc2)CN(C(=O)CCN2CCC(=NO)CC2)C/C1=C\c1ccc([N+](=O)[O-])cc1
6.4 µM

Entry to check: O=C(NCCCOC(=O)CCCCCCCCC(=O)OCCCNC(=O)NC(=O)c1c[nH]c(=O)[nH]c1=O)NC(=O)c1c[nH]c(=O)[nH]c1=O
> 100 µM

Entry to check: Cn1nc2ccc([N+](=O)[O-])c(Cn3nnc4ccccc43)c2n1
> 100 µM

Entry to check: COC(=O)c1sc(C(=O)OC)c2c1CS(=O)C2
> 100 µM

Entry to check: C=CCC1(C#N)C(=S)NC2=C(C(=O)CC(C)(C)C2)C1c1ccccc1 (centres undefined)
> 100 µM

Entry to check: CC(C)(C)c1ccc(OCCOc2ccc(C(C)(C)C)cc2N)c(N)c1
> 100 µM

Entry to check: COC(=O)C1(NC(=O)C(CC(=O)OCc2ccccc2)NC(=O)OCc2ccccc2)CCCCCC1 (centres undefined)
> 100 µM

Entry to check: Nc1ncn([C@@H]2S[C@H](CO)[C@@H](O)[C@@H]2F)c(=O)n1
30.1 µM

Entry to check: Cc1ccc(C)c(NC(=O)C(=O)C(C(=O)c2ccc3ccccc3c2)C2OC(=O)c3ccccc32)c1 (centres undefined)
28.8 µM

Entry to check: COC(=O)Cc1cc(O)c2c(c1O)C(=O)c1ccccc1C2=O
> 100 µM

Entry to check: COC(=O)C1=CO[C@@H](OC2CC(CO)C(O)C(O)C2O)[C@@H]2[C@@H](C)[C@@H](OC(=O)/C=C/c3ccccc3)[C@@H](O)[C@H]12 (some centres undefined) (tested in a mixture with another compound)
> 100 µM

Entry to check: N#CC(N)=Nc1ccccc1
> 100 µM

Entry to check: CCOC(=O)NC(=O)c1cn(CCN2CCN(C(=O)NCCCCCCNC(=O)N3CCN(CCn4cc(C(=O)NC(=O)OCC)c(=O)[nH]c4=O)CC3)CC2)c(=O)[nH]c1=O
> 100 µM

Entry to check: O=S1(=O)c2ccccc2Oc2ccc(C(/C=N/O)=N/O)cc21
> 100 µM

Entry to check: CC(=O)NC1C(OCc2ccccc2)OC(CO)C(O)C1OCC(=O)N1CCCC1C(=O)N[C@@H](CCC(=O)NCCCCNc1c2ccccc2nc2cccc([N+](=O)[O-])c12)C(N)=O (some centres undefined)
40.5 µM

Entry to check: Cc1ccc2nc(SCC(=O)N=Nc3c(O)[nH]c4ccccc34)n(-c3ccccc3)c(=O)c2c1
29.8 µM

Entry to check: O=c1oc2ccccc2c2c1Sc1ccccc1N2
> 100 µM

Entry to check: Cc1ccc(Nc2nc3[nH]ccc3c(=O)[nH]2)cc1
> 100 µM

Entry to check: O=c1cc(-c2cccs2)[nH]c2cc3c(cc12)OCO3
> 100 µM

Entry to check: O=S(=O)(/N=c1\scc(-c2ccccc2)n1-c1ccccc1)c1ccc(N2N=C3c4ccccc4CC3C2c2ccc(Cl)cc2)cc1 (centres undefined)
> 100 µM

Entry to check: N#CC(C#N)=C/C=C(\Cl)c1ccc(Cl)cc1
7.38 µM

Entry to check: CC1=C(C(=O)Nc2ccccc2C)C(c2ccc(Cl)cc2)C(C(=O)Nc2ccccc2C)=C(C)N1
> 100 µM

Entry to check: O=c1[nH]c(Nc2ccccc2)nc2c1ncn2CC(O)CSCCO (centres undefined)
> 100 µM

Entry to check: O=C1CC(CC(=O)C2CCCCC2=O)C(=O)N1 (centres undefined)
> 100 µM

Where these numbers come from: PubChem BioAssay (NCI)
